Target: α1A adrenoceptor (Rattus norvegicus, UniProt P43140)
Sequence (P43140 1-466): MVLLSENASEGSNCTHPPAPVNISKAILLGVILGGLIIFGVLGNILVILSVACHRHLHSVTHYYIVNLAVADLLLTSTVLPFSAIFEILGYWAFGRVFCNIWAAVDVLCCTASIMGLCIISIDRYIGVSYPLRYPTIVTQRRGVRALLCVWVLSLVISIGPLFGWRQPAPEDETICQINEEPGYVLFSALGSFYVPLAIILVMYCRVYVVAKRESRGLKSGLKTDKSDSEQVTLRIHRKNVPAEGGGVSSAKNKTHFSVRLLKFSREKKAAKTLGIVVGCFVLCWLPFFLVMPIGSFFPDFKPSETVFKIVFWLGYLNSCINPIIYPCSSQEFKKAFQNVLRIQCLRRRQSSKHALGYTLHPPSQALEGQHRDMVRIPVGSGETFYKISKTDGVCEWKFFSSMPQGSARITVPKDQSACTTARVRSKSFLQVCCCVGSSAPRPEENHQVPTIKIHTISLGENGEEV
pKi: −log10 of the molar value. Structures can show the parent of a compound that is named as a salt.
Readout Name: pKi

>>> print(df.to_string())
                                   compound  readout_name  measured_value
0  Fc1ccc2c(C3CCN(CCCN4CCCCC4)CC3)c[nH]c2c1 [Example 21, Hydrochloride]           pKi            7.68

[1] c1ccc2c(c1)CN(CCCN1CCC(c3c[nH]c4ccccc34)CC1)C2 [Example 14, Hydrochloride]
[2] c1ccc2c(c1)CN(CCCCN1CCC(c3c[nH]c4ccccc34)CC1)C2 [Example 15, Hydrochloride]
[3] c1ccc(C2CCN(CCCN3CCC(c4ccccc4)CC3)CC2)cc1 [Reference Example 21, Hydrochloride, reference compound]
[4] Fc1ccc2c(C3CCN(CCCN4Cc5ccccc5C4)CC3)c[nH]c2c1 [Example 23, Hydrochloride]
[5] c1ccc2c(c1)CN(CCCCCN1CCC(c3c[nH]c4ccccc34)CC1)C2
-- ask // ranking: key=pKi, reverse=True Returns: the labels arranged in the requested order.
-- reply 4, 2, 1, 5, 3
